Assay: in vivo pharmacokinetic studies in mice (Example 1)
Set-up: species or system mouse
Conditions: male, CD-1, mouse, in vivo, po, 10 mg/kg, intact prodrug, brain; mice, 10 mg/kg eqv
OBSERVABLE: AUC (µM·h)
One number for each entry, in µM·h.

Reported AUC for COc1cc(-c2nc(-c3ccccc3)c(-c3cccs3)[nH]2)cc(OC)c1OC(=O)N1CCC(N2CCCCC2)CC1 [Compound P1] : what is it?
0.477

---

For each record, write down the corresponding Stability in mouse (% remaining at 1h) Mean + Std Error, Brain.
Test: in vitro stability in CES1−/− mouse brain homogenates
Format: in vitro ADME
Conditions: CES1−/− mouse brain homogenate, 10 μM, 37° C.
Answers are plain numbers, in %.

{"COMPOUND": "COc1cc(-c2nc(-c3ccccc3)c(-c3cccs3)[nH]2)cc(OC)c1OC(=O)C(C)(C)C [Compound P4]", "MEASUREMENT": 93}
{"COMPOUND": "COc1cc(-c2nc(-c3ccccc3)c(-c3cccs3)[nH]2)cc(OC)c1OC(=O)N1C2CCC1CC(N1CCCCC1)C2 (stereo not drawn) [Compound P13]", "MEASUREMENT": 84}
{"COMPOUND": "CCCN(CCC)C(=O)Oc1c(OC)cc(-c2nc(-c3ccccc3)c(-c3cccs3)[nH]2)cc1OC [Compound P11]", "MEASUREMENT": 95}
{"COMPOUND": "CCC1CC(N2CCCCC2)CC(CC)N1C(=O)Oc1c(OC)cc(-c2nc(-c3ccccc3)c(-c3cccs3)[nH]2)cc1OC (stereo not drawn) [Compound P18]", "MEASUREMENT": 100}
{"COMPOUND": "COc1cc(-c2nc(-c3ccccc3)c(-c3cccs3)[nH]2)cc(OC)c1OP(=O)(O)O [Compound P14]", "MEASUREMENT": 102}
{"COMPOUND": "CCCCCCCNC(=O)Oc1c(OC)cc(-c2nc(-c3ccccc3)c(-c3cccs3)[nH]2)cc1OC [Compound P9]", "MEASUREMENT": 84}
{"COMPOUND": "COc1cc(-c2nc(-c3ccccc3)c(-c3cccs3)[nH]2)cc(OC)c1OC(=O)N(C)C [Compound P5]", "MEASUREMENT": 100}
{"COMPOUND": "CCC1CCCC(CC)N1C(=O)Oc1c(OC)cc(-c2nc(-c3ccccc3)c(-c3cccs3)[nH]2)cc1OC (stereo not drawn) [Compound P10]", "MEASUREMENT": 90}

Please examine the following record next.
Reported Stability in mouse (% remaining at 1h) Mean + Std Error, Brain for COc1cc(-c2nc(-c3cccs3)c(-c3ccccc3)[nH]2)cc(OC)c1O [DPTIP, reference compound] : what is it?
89

The reported numbers originate from patent US20240287108A1.
